experiment: physchem
Recorded endpoint: logP
// no unit, no text: just the number

**Query** Please give the measured logP for this molecule: CC1COC(=O)O1 (stereo not shown) [propylene carbonate]
**Result** -0.41
